Reference source: ChEMBL document CHEMBL1158298

Assay: Cytotoxicity against mouse J774.1 cells assessed as cell viability after 48 hrs by MTT assay
Format: cell-based
Conditions: read-out: Activity
endpointLabel: viability at 48 h

## Task Indicate its recorded viability at 48 h; the compound in question is C=C1C(=O)O[C@@H]2/C=C(\C)CC/C=C(\C)CC[C@@H]12 [COSTUNOLIDE]
## Result 92%
